For each entry below, report its Percent Effect value.
test system: Wolbachia pipientis; assay: Anti-Wolbachia Cell-Based Screen; format: functional; design: scale not given: in the data most compounds retested in dose-response had high values; conditions: 5 µM
The campaign covered roughly 48,000 compounds. About 13,000 (27%) showed an effect of 50% or more. The list shows a part of the results.
The answer is to be given in %; state only the numeric part.

Input line: Need Percent Effect of CCCNC(=O)C(C)Oc1ccccc1 (configuration not stated) , thanks.
Output line: 7.787

Input line: Need Percent Effect of O=C(N1CCOCC1CO)C1(c2cccs2)CCCC1 (configuration not stated) , thanks.
Output line: 1.205

Input line: Need Percent Effect of CCc1nc(CN2CCCC(N(C)CCn3cncn3)C2)no1 (configuration not stated) , thanks.
Output line: 8.167

Input line: Need Percent Effect of CN(CCc1cccs1)C1CCCN(Cc2noc(C3CC3)n2)C1 (configuration not stated) , thanks.
Output line: -17.24

Input line: Need Percent Effect of CN(Cc1cscn1)C1CCCN(Cc2noc(C3CC3)n2)C1 (configuration not stated) , thanks.
Output line: 3.354

Input line: Need Percent Effect of `O=C(O)c1cc(-c2ccc3c(c2)OCO3)cc(S(=O)(=O)NC2CC2)c1` , thanks.
Output line: 1.562

Input line: Need Percent Effect of `Cc1nn(C)cc1-c1ccnc(N(C)Cc2ccoc2)n1` , thanks.
Output line: -63.97

Input line: Need Percent Effect of CCCNC(=O)C(C)Oc1ccc(F)cc1 (configuration not stated) , thanks.
Output line: -16.03

Input line: Need Percent Effect of `Cc1[nH]ncc1CCCNC(=O)Nc1ccc(C#N)cc1` , thanks.
Output line: -18.53

Input line: Need Percent Effect of CN(CCn1cccn1)C1CCCN(Cc2noc(C3CC3)n2)C1 (configuration not stated) , thanks.
Output line: 100.3

Input line: Need Percent Effect of `CCc1c(C)sc2ncnc(N3CC[C@@H](N4CCC(O)CC4)[C@H](O)C3)c12` , thanks.
Output line: -2.578

Input line: Need Percent Effect of Cc1cc(CN(C)C2CCCN(Cc3noc(C4CC4)n3)C2)no1 (configuration not stated) , thanks.
Output line: 1.987
